All figures here come from the supplement of paper PMC4862054.

Reported values of normalised viability for individual entries
- Test system: HDQ-P1
- method: normalised viability (% of control), CellTiter-Blue; higher = more viable cells (100 = DMSO, 0 = benzethonium chloride kill control)
- recorded-conditions: 1 nM; incubation time: 72 h
Numeric answer only, unit % assumed.

• O=C(Cc1ccc(-c2ccc(OCCN3CCOCC3)cc2)cn1)NCc1ccccc1 = 138
• CC1=C(/C=C/C(C)=C/C=C/C(C)=C/C(=O)O)C(C)(C)CCC1 = 114
• COc1cc([C@@H]2c3cc4c(cc3[C@@H](O[C@@H]3O[C@@H]5CO[C@@H](c6cccs6)O[C@H]5[C@H](O)[C@H]3O)[C@H]3COC(=O)[C@H]23)OCO4)cc(OC)c1O [Teniposide] = 104
• Cc1ccc(-c2cc(C(F)(F)F)nn2-c2ccc(S(N)(=O)=O)cc2)cc1 = 114
• CCCS(=O)(=O)Nc1ccc(F)c(C(=O)c2c[nH]c3ncc(-c4ccc(Cl)cc4)cc23)c1F = 96.3

What value of normalised viability on HDQ-P1 does N#Cc1ccc(C(c2ccc(C#N)cc2)n2cncn2)cc1 have? 90.9

Also check Nc1nc2[nH]cc(CCc3ccc(C(=O)N[C@@H](CCC(=O)O)C(=O)O)cc3)c2c(=O)[nH]1 107

Also check C1CN1c1nc(N2CC2)nc(N2CC2)n1 109

====

- System: CAL-51
- method: normalised viability (% of control), CellTiter-Blue; higher = more viable cells (100 = DMSO, 0 = benzethonium chloride kill control)
- recorded-conditions: 1 nM; incubation time: 72 h
Reported values of normalised viability for individual entries
Numeric answer only, unit % assumed.

Examples from the recorded data:
• C=CC(=O)Nc1cc2c(Nc3ccc(F)c(Cl)c3)ncnc2cc1OCCCN1CCOCC1 = 109
• C[C@H]1C[C@@H]2[C@H]([C@@H](O)C[C@@]3(C)[C@H]2CC[C@]3(O)C(=O)CO)[C@@]2(C)C=CC(=O)C=C12 = 103

Kindly review the next compound as well.
Look up normalised viability: Nc1nc2[nH]cc(CCc3ccc(C(=O)N[C@@H](CCC(=O)O)C(=O)O)cc3)c2c(=O)[nH]1 109

====

Reported values of normalised viability for individual entries
- Test system: BT-474
- method: normalised viability (% of control), CellTiter-Blue; higher = more viable cells (about 100 = DMSO control)
- recorded-conditions: 10 nM; incubation time: 72 h
Numeric answer only, unit % assumed.

Examples from the recorded data:
- CCN(CC)CCCC(C)Nc1c2ccc(Cl)cc2nc2ccc(OC)cc12 (configuration not stated): 111
- Nc1nc2[nH]cc(CCc3ccc(C(=O)N[C@@H](CCC(=O)O)C(=O)O)cc3)c2c(=O)[nH]1: 123
- O=C(Cc1ccc(-c2ccc(OCCN3CCOCC3)cc2)cn1)NCc1ccccc1: 114
- O=C(O)C1(C(=O)O)CCC1.[NH2-].[NH2-].[Pt+2]: 127
- N#Cc1ccc(C(c2ccc(C#N)cc2)n2cncn2)cc1: 105
- Nc1ccccc1NC(=O)c1ccc(CNC(=O)OCc2cccnc2)cc1: 108

Kindly review the next compound as well.
Look up normalised viability: NCCCNCCSP(=O)(O)O 94.2

====

- Test system: HCC1599
- method: drug sensitivity score (DSS), CellTox Green (DSS (AUC-based score)); higher = stronger drug effect (viability inhibition or cytotoxicity); extreme values may be limits of the assay
- recorded-conditions: incubation time: 72 h
parameter: drug sensitivity score
Returns: the value as a bare number; no unit string appended.

Examples from the recorded data:
• CCc1cncnc1N1CCN(Cc2nc3ccc(C(F)(F)F)cc3[nH]2)CC1 = 0
• O=C(Cc1ccc(-c2ccc(OCCN3CCOCC3)cc2)cn1)NCc1ccccc1 = 3.99
• Cc1ccc(-c2cc(C(F)(F)F)nn2-c2ccc(S(N)(=O)=O)cc2)cc1 = 0
• O=C(O)C(=O)O.[NH-][C@@H]1CCCC[C@H]1[NH-].[Pt+2] = 0

Look up drug sensitivity score: Cc1cnc(NC(=O)Nc2cc(Br)c(C)cc2OC[C@@H]2CNCCO2)cn1 0

Also check Nc1nc(F)nc2c1ncn2[C@@H]1O[C@H](CO)[C@@H](O)[C@@H]1O 0
